Tested on: RXRa homodimer (NR concentration 180 nM)
assayDetails: PBM binding z-score (relative to random genomic background probes); higher = stronger binding; sequences stand for … in GC…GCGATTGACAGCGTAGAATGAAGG
readoutType: PBM binding z-score
Reply: number alone, nothing else.

input: Supply reported PBM binding z-score belonging to this sequence: `TCTGCTAGGTCAGTTGGTCATCTAACGAGCTGCC`
output: 1.25

input: Supply reported PBM binding z-score belonging to this sequence: `ATCGACAGGTCGACGAGGTGAGTATACACCGTTT`
output: 1.58

input: Supply reported PBM binding z-score belonging to this sequence: `AGTCAAAGTTCACTAGGTAACGTGAGATTCAGCT`
output: 3.61

input: Supply reported PBM binding z-score belonging to this sequence: `TCTTGTAGATCAGCAGGTTATGAAAGCTGGCCAA`
output: 0.311

input: Supply reported PBM binding z-score belonging to this sequence: `ACAGACAGGTGATGAAGGTCACTCAGGCTATCAT`
output: 2.67

input: Supply reported PBM binding z-score belonging to this sequence: `TCTAGTTGATCAAAGGTCACACACTCGAAATGCG`
output: 7.03

input: Supply reported PBM binding z-score belonging to this sequence: `CCTCGGAGGACAACAGGAGGTCAGTGCTGCCAGA`
output: 1.28

input: Supply reported PBM binding z-score belonging to this sequence: `ATACCAAGGTGATCGTGAGGTCGTTGCTACTAAC`
output: 1.56

input: Supply reported PBM binding z-score belonging to this sequence: `ATAATGAGGTTAAGATCAGGGAAACAGAATACAT`
output: 2.68

input: Supply reported PBM binding z-score belonging to this sequence: `CATTACGGGTCAAGGTTATAGCACGGGTGGTACG`
output: 6.03

input: Supply reported PBM binding z-score belonging to this sequence: `CCAGACCGGTGAGAAGGTAACTCAGCCTCGATTA`
output: -0.308

input: Supply reported PBM binding z-score belonging to this sequence: `CCTTACGGGTCAAGGTGATAGCACGGGTGGTACG`
output: 5.2

input: Supply reported PBM binding z-score belonging to this sequence: `ATATGTAGGTTATCGGCTCATTCAGTTTGCGCAT`
output: 0.927

input: Supply reported PBM binding z-score belonging to this sequence: `TCTGTTAGGTCAGTTGGTCAGCTAACGAGCTGCC`
output: 1.19

input: Supply reported PBM binding z-score belonging to this sequence: `TTACCAAGGTGAAAGGTAGTTGATGCACGCCTTG`
output: 1.67

input: Supply reported PBM binding z-score belonging to this sequence: `AATACAGGGTCATCGTAGGCCACAGTACGCACAG`
output: 6.9

input: Supply reported PBM binding z-score belonging to this sequence: `ACTATTAGTTGAGACGAGGGGAACCGATAGGTTG`
output: 0.177

input: Supply reported PBM binding z-score belonging to this sequence: `GGAACGAGGGCAAAGCTGATAGCATCTGTCGACG`
output: 0.836

input: Supply reported PBM binding z-score belonging to this sequence: `AGAATGACGTTATTAAGATCAGGGAATTGCGGTC`
output: -0.18

input: Supply reported PBM binding z-score belonging to this sequence: `ACTGACAGGTGATGAAGGTAACTCAGGCTATCAT`
output: 0.16

input: Supply reported PBM binding z-score belonging to this sequence: `CAAACTAGGTCAAGAGGTCAAGGTCCGCTTCCCG`
output: 8.06

input: Supply reported PBM binding z-score belonging to this sequence: `GCTAGCAGGCCATTTGGGTGACTCAATGACGGGC`
output: -0.076

input: Supply reported PBM binding z-score belonging to this sequence: `GCGACTGGGGCATCAGCAGGTTACCTTAACTTAA`
output: 0.259

input: Supply reported PBM binding z-score belonging to this sequence: `GGAACGAGGGCAAAGTTGATAGCTTCTGTCGACG`
output: 1.72

input: Supply reported PBM binding z-score belonging to this sequence: `GGGACGAGGGCATTCGAGTTGATAGCATGGCGAT`
output: 0.775

input: Supply reported PBM binding z-score belonging to this sequence: `CAGCCTAGGTCAGGGTCAGTATAGGAGGAACGTT`
output: 3.67

###

Test system: RXRa DBDmut IVT, anti-RXR (DBD mutation: RXRa K156A/R161A, NR concentration 90 nM)
assayDetails: PBM binding z-score (relative to random genomic background probes); higher = stronger binding; sequences stand for … in GC…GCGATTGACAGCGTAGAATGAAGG
Answer n if PBM binding z-score is under 1, and y if it is 1 or more.

input: Confirm if PBM binding z-score reported for the sequence `CGTCCAAGGTCAATGCTAGTTCAGTGAAAGCATT` is 1 or above.
output: y

input: Confirm if PBM binding z-score reported for the sequence `CGAACTAGGTCAAGGACAGTGACTCTCCGCACGC` is 1 or above.
output: y

input: Confirm if PBM binding z-score reported for the sequence `CTCGAAAGGTCGGTGGAGGTGAGTATACGGATAA` is 1 or above.
output: n

input: Confirm if PBM binding z-score reported for the sequence `AGAAGGAGGTTACCAAAGATCAGGGAAACGCTTG` is 1 or above.
output: n

input: Confirm if PBM binding z-score reported for the sequence `TCTTTTAGATCAATAGAGGTTAAGAAAGTGCGCT` is 1 or above.
output: n

###

System: RARg homodimer (NR concentration 270 nM)
assayDetails: PBM binding z-score (relative to random genomic background probes); higher = stronger binding; sequences stand for … in GC…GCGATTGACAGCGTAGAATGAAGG
Answer 0 (no) if PBM binding z-score is under 4, and 1 (yes) if it is 4 or more.

input: Confirm if PBM binding z-score reported for the sequence `AGAGTGAGGTTATTAAGATCAGGGAATTGCGGTC` is 4 or above.
output: 0 (no)

input: Confirm if PBM binding z-score reported for the sequence `CCTATTAGTTGACCATAAGGGGAACCGAAGCTCG` is 4 or above.
output: 0 (no)

input: Confirm if PBM binding z-score reported for the sequence `CGTCAAAGTTCAACTAAGGTAACCTAAAGCACGC` is 4 or above.
output: 1 (yes)

input: Confirm if PBM binding z-score reported for the sequence `GCGACTGGGGCTAAGCAGGTTACCATAAGGTTGG` is 4 or above.
output: 0 (no)

input: Confirm if PBM binding z-score reported for the sequence `TCTAATTGGTCACGGAGGTCACACACGACGGGTA` is 4 or above.
output: 1 (yes)

input: Confirm if PBM binding z-score reported for the sequence `CCTACTGGGCCACAAAGGTCATTGATGCCGATAA` is 4 or above.
output: 1 (yes)

input: Confirm if PBM binding z-score reported for the sequence `CAAACTAGGTCACGAAAGGTCAAAGTCGAATGAC` is 4 or above.
output: 1 (yes)

input: Confirm if PBM binding z-score reported for the sequence `ATAATGAGGTTATACGTAGATCAGGGAAGAAAGT` is 4 or above.
output: 0 (no)

input: Confirm if PBM binding z-score reported for the sequence `CTCGAAAGGTCGTGCTCAGGCGAGTATACCAAAC` is 4 or above.
output: 0 (no)

input: Confirm if PBM binding z-score reported for the sequence `AACGAAAGGTCGAGGTGAGTATAGAGAAAGGGAA` is 4 or above.
output: 1 (yes)

input: Confirm if PBM binding z-score reported for the sequence `CAAACTAGGTCAAGGTCAAAGTTGGTTTGTGCCA` is 4 or above.
output: 1 (yes)

###

Consider the following sequences; for each one, report its PBM binding z-score.
Tested on: PPARg:RXRa DBDmut IVT, anti-RXR (DBD mutation: RXRa K156A/R161A, NR concentration 270 nM, RXRa partner concentration 90 nM)
assayDetails: PBM binding z-score (relative to random genomic background probes); higher = stronger binding; sequences stand for … in GC…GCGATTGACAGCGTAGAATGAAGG
Reply: number alone, nothing else.

input: Supply reported PBM binding z-score belonging to this sequence: `TCGAGTAGTTTAGTCGGGGCATTCAGCCAACATA`
output: 1.24

input: Supply reported PBM binding z-score belonging to this sequence: `ATCTCTACGTAAAGATAGTTCAGTGAATGCAAAT`
output: -0.595

input: Supply reported PBM binding z-score belonging to this sequence: `TCACCAAGGTGAAGGTCGTTGATCCCTCTGTAGA`
output: 2.46

input: Supply reported PBM binding z-score belonging to this sequence: `ATATGTAGGTTATCGGGTCATTCGGTTTGCGCAT`
output: 7.54

input: Supply reported PBM binding z-score belonging to this sequence: `CGAACTAGGTCAAGGACAGTGATTCTCCGCACGC`
output: 8.31

input: Supply reported PBM binding z-score belonging to this sequence: `CCAGACAGTTGAAAGGTAACTCAGTCTGGTACGC`
output: 0.0148

input: Supply reported PBM binding z-score belonging to this sequence: `CCTTACGGGTCACTGACACGTTATAGCATTTGGA`
output: 3.57

input: Supply reported PBM binding z-score belonging to this sequence: `CCGACTGGGGCCTAAGGTTACCATAAGCCAGCCC`
output: -0.456

input: Supply reported PBM binding z-score belonging to this sequence: `TCTTATAGGTAAAGGTGAAAGTCGAACGATATGA`
output: 3.92

input: Supply reported PBM binding z-score belonging to this sequence: `TCTCGGAGGACCCGAAGGTCAGAGCTTTCCAGAG`
output: 0.809

input: Supply reported PBM binding z-score belonging to this sequence: `GCTAGCAGGCCATTTGGGTCAATCAATGACGGGC`
output: 1.77

input: Supply reported PBM binding z-score belonging to this sequence: `ATCTCTAGGTAACAAATTCAGTGAAAGAGAGGAC`
output: 2.5

Data provenance is the supplement of paper PMC6555819.
